Molecular target: cytochrome P450 2C8 (Homo sapiens (Human), UniProt P10632)
Sequence (P10632 whole entry): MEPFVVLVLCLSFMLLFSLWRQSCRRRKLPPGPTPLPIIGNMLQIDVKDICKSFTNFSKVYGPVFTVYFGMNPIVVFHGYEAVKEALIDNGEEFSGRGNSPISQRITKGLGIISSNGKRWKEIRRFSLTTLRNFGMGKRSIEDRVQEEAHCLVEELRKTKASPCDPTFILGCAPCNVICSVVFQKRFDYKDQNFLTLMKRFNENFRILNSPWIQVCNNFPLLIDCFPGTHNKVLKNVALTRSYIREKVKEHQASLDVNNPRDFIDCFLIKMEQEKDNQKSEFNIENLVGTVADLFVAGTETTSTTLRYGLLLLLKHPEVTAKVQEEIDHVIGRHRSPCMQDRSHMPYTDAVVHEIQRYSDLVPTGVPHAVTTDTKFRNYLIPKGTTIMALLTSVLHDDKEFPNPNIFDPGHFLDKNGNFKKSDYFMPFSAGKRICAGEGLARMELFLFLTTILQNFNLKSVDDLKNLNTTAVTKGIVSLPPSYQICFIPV
Assay: Cytochrome P450 2C8 inhibition
Assay type: in vitro ADME
Settings: human liver microsomes, Amodiaquine deethylation; read-out: IC50 CYP2C8 inhibition
pIC50: −log10 of the molar value.
quantity kind: pIC50

Prompt: Entry "CNC(=O)c1cc(C#N)ccc1[C@@H]1C(C(C)=O)=C(C)N(c2cccc(C(F)(F)F)c2)C(=O)N1C" : reported pIC50 = ?
Completion: < 4.30

###

Target: cytochrome P450 2C19 (Homo sapiens (Human), UniProt P33261)
Sequence (P33261 whole entry): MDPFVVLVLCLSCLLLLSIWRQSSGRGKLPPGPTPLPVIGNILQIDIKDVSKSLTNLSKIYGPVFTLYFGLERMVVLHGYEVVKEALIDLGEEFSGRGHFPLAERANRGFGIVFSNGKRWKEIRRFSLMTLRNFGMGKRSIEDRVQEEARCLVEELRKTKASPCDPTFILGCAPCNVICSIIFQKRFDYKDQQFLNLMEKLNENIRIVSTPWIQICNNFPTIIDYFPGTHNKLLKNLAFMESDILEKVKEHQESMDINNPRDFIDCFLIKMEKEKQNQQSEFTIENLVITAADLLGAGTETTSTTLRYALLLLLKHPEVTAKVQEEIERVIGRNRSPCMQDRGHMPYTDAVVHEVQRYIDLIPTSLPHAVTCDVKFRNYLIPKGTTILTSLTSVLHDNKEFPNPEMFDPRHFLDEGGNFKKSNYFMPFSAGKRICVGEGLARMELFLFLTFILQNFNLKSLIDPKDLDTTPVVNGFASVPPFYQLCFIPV
Experiment: Cytochrome P450 2C19 inhibition
Assay type: in vitro ADME
Settings: human liver microsomes, Mephenytoin hydroxylation; read-out: IC50 CYP2C19 inhibition
quantity kind: IC50

Prompt: State its IC50 on cytochrome P450 2C19 (Homo sapiens (Human), UniProt P33261): "CNC(=O)c1cc(C#N)ccc1[C@@H]1C(C(C)=O)=C(C)N(c2cccc(C(F)(F)F)c2)C(=O)N1C"
Completion: > 50 µM
